Tested on: T1, TCE-25 (anti-CD3 scFv L232A; anti-TROP2 wt)
T1 construct: scFv on the Fab heavy chain
Protocol notes: competition ELISA, TCE on captured CD3
pIC50: −log10 of the molar value. Where no end group is shown, it is not given here.

>  <Binder>
VYCGPEFDESVGCA (cysteine pairing not given here; also: biotinylated, site not given here, mask peptide for the CD3 scFv) [Peptide-73]

>  <pIC50>
6.19

$$$$
